test system: COLO 205 colon; assay: NCI-60 one-dose screen, 48 h; settings: 10 µM unless noted
This is part of a sample that, as a whole, favours compounds with a hit. Of some 83,000 tested, about 20% had one in any assay. Activity calls are given as the source filed them. The calls were made as follows: active = growth percent below 10; inactive = the rest.
Classes used: yes (1) = active, no (0) = inactive

> print(dat)
                                   compound    assay.system  assigned.label
1  CCCCCCCC(=O)SCC/C=C/[C@@H]1CC(=O)NCc2nc(co2)C2=N[C@@](C)(CS2)C(=O)N[C@@H](C(C)C)C(=O)O1  COLO 205 colon         yes (1)
2  Cn1cc(-c2ccc(F)c(C(F)(F)F)c2)nc1C1CCN(c2ncnc3[nH]ncc23)CC1  COLO 205 colon          no (0)
3  C=CCCCOC1[C@H](OCc2ccccc2)C(OCc2ccccc2)C(OC)O[C@@H]1CNC(=O)c1cccc(I)c1 (stereo not given in full)  COLO 205 colon          no (0)
4  O=C(Nc1ccc(N=Nc2ccccc2)cc1)c1cccc2ccccc12  COLO 205 colon          no (0)
5  CN(C)CCOC(=O)Nc1nc2ccc(Sc3ccccc3)cc2[nH]1  COLO 205 colon         yes (1)
